target: human hepatocyte growth factor (HGF), recombinant full-length, active two-chain form (human, UniProt P14210 32-728); experiment: cell-based or functional assay
Sequence (P14210 other isoform, or with tags, fused parts or gaps limits assumed): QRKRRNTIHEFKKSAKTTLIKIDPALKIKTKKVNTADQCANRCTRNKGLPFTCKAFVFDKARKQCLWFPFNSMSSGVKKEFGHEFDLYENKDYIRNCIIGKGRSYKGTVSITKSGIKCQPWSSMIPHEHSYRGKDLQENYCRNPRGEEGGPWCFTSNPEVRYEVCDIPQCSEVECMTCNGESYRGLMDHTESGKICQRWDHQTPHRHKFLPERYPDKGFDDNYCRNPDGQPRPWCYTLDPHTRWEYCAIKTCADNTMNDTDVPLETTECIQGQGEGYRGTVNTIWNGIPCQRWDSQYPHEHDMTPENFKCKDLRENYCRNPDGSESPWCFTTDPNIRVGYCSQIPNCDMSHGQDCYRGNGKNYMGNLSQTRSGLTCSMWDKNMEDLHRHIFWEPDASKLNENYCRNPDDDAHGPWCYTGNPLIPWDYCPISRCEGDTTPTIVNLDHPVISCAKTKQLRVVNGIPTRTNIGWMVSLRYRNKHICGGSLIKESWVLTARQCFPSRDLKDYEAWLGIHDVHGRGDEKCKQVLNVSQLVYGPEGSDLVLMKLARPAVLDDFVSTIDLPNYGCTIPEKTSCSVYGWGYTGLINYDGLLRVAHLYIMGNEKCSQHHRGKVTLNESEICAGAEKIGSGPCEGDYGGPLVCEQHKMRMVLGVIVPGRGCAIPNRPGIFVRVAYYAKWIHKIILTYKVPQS
Positions of bridges follow the written chain, without caps; N, C: chain ends. Non-standard residues stand in square brackets, D forms with d. No end group written: not given here.
measure.name: MET inhibitory activity (MET activation inhibition test, EHMES-1 cells)

[[record]]
binder = "{CH2CO}-[dW]KHKISKWKKC (thioether N-11 (inferred)) [cyclic peptide HiP-6]"
value = "≥ 100 nM"

[[record]]
binder = "{CH2CO}-[dW]IFKISKWYKC (thioether N-11 (inferred), C-terminal tail after Cys not known (drawing)) [cyclic peptide HiP-13]"
value = "≥ 100 nM"

[[record]]
binder = "Ac-[dW]RYIKLCKISKWSRC (thioether (positions not given here); also: thioether ring-closing Cys not given here (Cys7 or Cys15)) [cyclic peptide HiP-10]"
value = "≥ 100 nM"

[[record]]
binder = "{CH2CO}-[dW]NRGINKYWKC (thioether N-11 (inferred)) [cyclic peptide HiP-15]"
value = "≥ 100 nM"

[[record]]
binder = "{CH2CO}-[dW]NKKVSKWYKRGC (thioether N-13 (inferred)) [cyclic peptide HiP-16]"
value = "≥ 100 nM"

